- test.system: Muscarinic acetylcholine receptor DM1 (Drosophila melanogaster, UniProt P16395)
- Sequence (P16395 whole entry): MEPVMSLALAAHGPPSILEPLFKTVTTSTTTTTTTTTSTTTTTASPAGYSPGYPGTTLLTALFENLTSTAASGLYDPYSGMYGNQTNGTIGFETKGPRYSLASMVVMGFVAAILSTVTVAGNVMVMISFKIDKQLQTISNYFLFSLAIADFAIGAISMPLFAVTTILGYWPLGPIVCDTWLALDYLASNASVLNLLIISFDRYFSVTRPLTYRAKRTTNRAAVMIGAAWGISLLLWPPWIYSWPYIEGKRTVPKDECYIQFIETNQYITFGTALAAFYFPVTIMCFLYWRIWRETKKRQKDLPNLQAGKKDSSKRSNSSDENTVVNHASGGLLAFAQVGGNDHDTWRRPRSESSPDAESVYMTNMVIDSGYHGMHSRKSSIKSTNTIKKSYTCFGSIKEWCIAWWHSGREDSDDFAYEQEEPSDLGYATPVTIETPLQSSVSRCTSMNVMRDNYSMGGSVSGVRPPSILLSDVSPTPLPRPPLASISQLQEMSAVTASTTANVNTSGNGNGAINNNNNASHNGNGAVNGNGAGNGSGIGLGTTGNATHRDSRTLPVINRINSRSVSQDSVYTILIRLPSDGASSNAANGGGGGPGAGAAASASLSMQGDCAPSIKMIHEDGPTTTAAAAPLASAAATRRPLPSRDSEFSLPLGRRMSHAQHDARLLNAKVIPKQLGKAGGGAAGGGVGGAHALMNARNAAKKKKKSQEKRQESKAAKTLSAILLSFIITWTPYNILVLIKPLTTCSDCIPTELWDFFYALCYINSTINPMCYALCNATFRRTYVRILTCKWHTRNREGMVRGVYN
- method.summary: Displacement of [3H]QNB from Drosophila melanogaster mAChR by scintillation counting
yes if Ki is below 1000 nM. no if not; exact matches included in no.

Item CC(=O)OC1CN2CCC1CC2 (centres undefined) : Ki beneath 1000 nM, strictly?
no

# check: Ki < 1000 nM for C[N+]1(C)[C@@H]2CC[C@H]1C[C@@H](OC(=O)C(CO)c1ccccc1)C2.O=[N+]([O-])[O-] (some centres undefined) [METHYLATROPINE NITRATE]
yes

Confirm or reject: Ki of Cc1noc(C2CN3CCC2CC3)n1 (centres undefined) lies strictly below 1000 nM
no

Please determine if CCCN(CCC)CC1CCCCN1CCNC(=O)N1c2ccccc2C(=O)Nc2cccnc21 (centres undefined) is below 1000 nM in terms of Ki.
yes

Ki strictly < 1000 nM for this compound? "C[C@H](C1=C(CCN(C)C)Cc2ccccc21)c1ccccn1"
yes

Threshold test, Ki < 1000 nM: "CCOP(=O)(OCC)Oc1nc(Cl)c(Cl)cc1Cl"
no

Lab note: Ki threshold 1000 nM. Does this compound come in strictly under it? CCN(CC)CC1CCCCN1CC(=O)N1c2ccccc2C(=O)Nc2cccnc21 (centres undefined)
no

Report whether reported Ki is lower than 1000 nM (strictly) for "O=C1CCCN1CC#CCN1CCCC1"
no

Does Cc1ccc(C[N+](C)(C)C)o1 [5-METHYLFURMETHIODIDE] have Ki strictly under 1000 nM?
no

Below 1000 nM on Ki? Entry "CC#CCOC(=O)C1=CCCN(C)C1"
no

is_below(Ki, 1000 nM) for CN1CCN(CC(=O)N2c3ccccc3C(=O)Nc3cccnc32)CC1 [PIRENZEPINE] ?
yes

Ki strictly < 1000 nM for this compound? "CCOP(=O)(OCC)Oc1ccc([N+](=O)[O-])cc1"
no

Just wondering, is Ki of "O=[N+]([O-])NC1=NCCN1Cc1ccc(Cl)nc1" below 1000 nM?
no

----------
- Test system: Musca domestica
- method.summary: Toxicity to Musca domestica (house fly) assessed as mortality at 75 ug/fly measured after 2.5 hr
- Assay type: functional
measurement.type: Activity (%)
Give the value, in units of %, as a plain number.

Activity reported for this compound "CN1[C@@H]2CC[C@H]1C[C@@H](OC(=O)N1Cc3ccccc3NC1=O)C2" : 17

Item: C[N+]1(C)[C@@H]2CC[C@H]1C[C@@H](OC(=O)C(CO)c1ccccc1)C2.O=[N+]([O-])[O-] (stereo partly specified) [METHYLATROPINE NITRATE] | Activity: 20

For record "C[N+]1(C)CCC(OC(=O)C(c2ccccc2)c2ccccc2)CC1.[I-]" the listed Activity is 60

For this compound ( "C#CCOC(=O)C1=CCCN(C)C1" ), measured Activity is 100

So, Br.CN1[C@@H]2C[C@@H](OC(=O)[C@H](CO)c3ccccc3)C[C@H]1[C@@H]1O[C@@H]12.O.O.O [SCOPOLAMINE HYDROBROMIDE] ? Its Activity was 0

# compound Cc1noc(C2CN3CCC2CC3)n1 (stereo unspecified) ; its Activity = 33

----------
- Tested on: Musca domestica
- method.summary: Toxicity to Musca domestica (house fly) assessed as mortality at 75 ug/fly measured after 2.5 hr
- Assay type: functional
For each record, write down the corresponding Activity.
Numbers only here, please. The scale is %.

Form: molecule = "CC#CCOC(=O)C1=CCCN(C)C1" ; Activity = 8

The measured Activity associated with CN1CCN(CC(=O)N2c3ccccc3C(=O)Nc3cccnc32)CC1 [PIRENZEPINE] reads 13

The measured Activity associated with "C[C@H](C1=C(CCN(C)C)Cc2ccccc21)c1ccccn1" reads 97

Measured Activity, CC(=O)OC1CN2CCC1CC2 (stereo not given) : 10

The molecule identified as "CC[C@@H]1C(=O)OC[C@@H]1Cc1cncn1C" registered its Activity at 7

----------
Answer each item with its documented Ki.
- test.system: Muscarinic acetylcholine receptor DM1 (Drosophila melanogaster)
- method.summary: Displacement of [3H]QNB from Drosophila melanogaster mAChR by scintillation counting
Write it as a number; the unit nM goes unstated.

// assay Muscarinic acetylcholine receptor DM1 (Drosophila melanogaster), entry "CN1[C@@H]2CC[C@H]1C[C@@H](OC(=O)N1Cc3ccccc3NC1=O)C2" , Ki value = 640

Let me check: "C#CCOC(=O)C1=CCCN(C)C1" , system Muscarinic acetylcholine receptor DM1 (Drosophila melanogaster), measured Ki is 4490

Value (Ki, Muscarinic acetylcholine receptor DM1 (Drosophila melanogaster)) for record "C[N+]1(C)CCC(OC(=O)C(c2ccccc2)c2ccccc2)CC1.[I-]" = 15

Entry COc1ccccc1CNCCCCCCNCCCCCCCCNCCCCCCNCc1ccccc1OC.Cl.Cl.Cl.Cl [METHOCTRAMINE HYDROCHLORIDE] ; assay system Muscarinic acetylcholine receptor DM1 (Drosophila melanogaster); Ki recorded at 2850

----------
- test.system: Muscarinic acetylcholine receptor DM1 (Drosophila melanogaster, UniProt P16395)
- method.summary: Displacement of [3H]AF-DX 384 from Drosophila melanogaster mAChR by scintillation counting
Kindly supply the reported Ki values for the records listed here.

Entry C[N+]1(C)[C@@H]2CC[C@H]1C[C@@H](OC(=O)C(CO)c1ccccc1)C2.O=[N+]([O-])[O-] (stereo partly drawn) [METHYLATROPINE NITRATE] ; Ki = 1.8 nM

Recorded Ki (compound C#CCOC(=O)C1=CCCN(C)C1 [ARECAIDINE PROPARGYL ESTER] ): 5200 nM

Ki for "C[C@H](C1=C(CCN(C)C)Cc2ccccc21)c1ccccn1" is 660 nM

Entry CCOP(=O)(OCC)Oc1ccc([N+](=O)[O-])cc1 [PARAOXON] ; Ki = > 100000 nM

Short answer for CCN(CC)CC1CCCCN1CC(=O)N1c2ccccc2C(=O)Nc2cccnc21 (stereo not drawn) [OTENZEPAD] : Ki was 1380 nM

Record summary for CCCN(CCC)CC1CCCCN1CCNC(=O)N1c2ccccc2C(=O)Nc2cccnc21 (stereo not drawn) : reported Ki = 6.1 nM

Noted for O=[N+]([O-])NC1=NCCN1Cc1ccc(Cl)nc1 [IMIDACLOPRID] : its Ki reads > 100000 nM

The compound O=C1CCCN1CC#CCN1CCCC1 [OXOTREMORINE] showed Ki equal to 21500 nM

Short answer for COc1ccccc1CNCCCCCCNCCCCCCCCNCCCCCCNCc1ccccc1OC.Cl.Cl.Cl.Cl [METHOCTRAMINE HYDROCHLORIDE] : Ki was 3860 nM

Consider Cc1ccc(C[N+](C)(C)C)o1 [5-METHYLFURMETHIODIDE] . Its measured Ki is 12300 nM

Value of Ki reported for the compound Cc1noc(C2CN3CCC2CC3)n1 (stereo not drawn) is 1330 nM

The compound CCOC(=O)c1c(C)[nH]c2ccc3c(c12)CN1CCc2cc(OC)ccc2C1O3 (stereo not drawn) showed Ki equal to 1430 nM

Ki reading for CCOP(=O)(OCC)Oc1nc(Cl)c(Cl)cc1Cl [CHLORPHRIFOS OXON] : > 100000 nM

CN1CCN(CC(=O)N2c3ccccc3C(=O)Nc3cccnc32)CC1 [PIRENZEPINE] has a reported Ki of 390 nM

Ki measured on C[N+]1(C)CCC(OC(=O)C(c2ccccc2)c2ccccc2)CC1.[I-] [4-DAMP] = 18 nM

Recorded Ki (compound CC#CCOC(=O)C1=CCCN(C)C1 [ARECAIDINE BUT-2-YNYL ESTER] ): 1560 nM

The compound "CN1[C@@H]2CC[C@H]1C[C@@H](OC(=O)N1Cc3ccccc3NC1=O)C2" showed Ki equal to 570 nM

Data point: CC(=O)OC1CN2CCC1CC2 (stereo not drawn) [ACECLIDINE] ; Ki = 114000 nM

----------
- Test system: Musca domestica
- method.summary: Toxicity to Musca domestica (house fly) assessed as mortality at 25 ug/fly measured after 24 hr
- Format: functional
measurement.type: Activity (%)
Numbers only here, please. The scale is %.

Log: Musca domestica, molecule "C[N+]1(C)CCC(OC(=O)C(c2ccccc2)c2ccccc2)CC1.[I-]" , Activity = 10

C[N+]1(C)[C@@H]2CC[C@H]1C[C@@H](OC(=O)C(CO)c1ccccc1)C2.O=[N+]([O-])[O-] (stereo partly drawn) [METHYLATROPINE NITRATE] tested on Musca domestica gave Activity: 13

So the reported Activity for "CC#CCOC(=O)C1=CCCN(C)C1" , on Musca domestica, turned out to be 3

Response field Activity (Musca domestica) for item "C#CCOC(=O)C1=CCCN(C)C1" : 0

Reported Musca domestica Activity for item "CC[C@@H]1C(=O)OC[C@@H]1Cc1cncn1C" was 0

Measured Activity (Musca domestica), entry Br.CN1[C@@H]2C[C@@H](OC(=O)[C@H](CO)c3ccccc3)C[C@H]1[C@@H]1O[C@@H]12.O.O.O [SCOPOLAMINE HYDROBROMIDE] : 3

Lab note: molecule COc1ccccc1CNCCCCCCNCCCCCCCCNCCCCCCNCc1ccccc1OC.Cl.Cl.Cl.Cl [METHOCTRAMINE HYDROCHLORIDE] tested on Musca domestica; recorded Activity was 100

Form: item CCOC(=O)c1c(C)[nH]c2ccc3c(c12)CN1CCc2cc(OC)ccc2C1O3 (stereo not drawn) ; test system Musca domestica; Activity: 13

Assay Musca domestica, sample "CN1[C@@H]2CC[C@H]1C[C@@H](OC(=O)N1Cc3ccccc3NC1=O)C2" , Activity read: 0

The observed Activity for Cc1noc(C2CN3CCC2CC3)n1 (stereo not drawn) when tested with Musca domestica stands at 3

Known value: Musca domestica Activity of the molecule CN1CCN(CC(=O)N2c3ccccc3C(=O)Nc3cccnc32)CC1 [PIRENZEPINE] equals 7

Entry CC(=O)OC1CN2CCC1CC2 (stereo not drawn) under Musca domestica had Activity of 0

Activity value, target or system Musca domestica, for "C[C@H](C1=C(CCN(C)C)Cc2ccccc21)c1ccccn1" : 3
